Test system: Plasmodium falciparum
Experiment: Antimalarial activity against chloroquine and pyrimethamine-resistant Plasmodium falciparum K1
Format: functional, organism-based
measured endpoint: IC50 (nM)

line notation | test system | measured endpoint | result
CCN(CC)c1ccc2nc3ccc(N4CCCCC4)cc3[o+]c2c1.[Cl-] | Plasmodium falciparum | IC50 | 2.69

====

Experiment: Selectivity index, ratio of IC50 for rat L6 cells to IC50 for chloroquine and pyrimethamine-resistant Plasmodium falciparum K1
Format: toxicity, cell-based
Conditions: read-out: Ratio IC50
measured endpoint: selectivity ratio

line notation | result
CCN(CC)c1ccc2nc3ccc(N4CCCCC4)cc3[o+]c2c1.[Cl-] | 2390

====

System: Plasmodium berghei
Assay: Antimalarial activity as reduced parasitaemia against Plasmodium berghei NK65 infected ICR mice (Mus musculus) at 20 mg/kg/day intraperitoneal dose at day 4
Assay type: functional
Parameters: scale not given: the % may be the effect or the level left

line notation | Activity [%]
CN(C)c1ccc2nc3ccc(N4CCCC4)cc3[o+]c2c1.[Cl-] | 95.7
CCCN(CCC)c1ccc2nc3ccc(N4CCSCC4)cc3[o+]c2c1.[Cl-] | 96.5
CCCN(CCC)c1ccc2nc3ccc(N4CCOCC4)cc3[o+]c2c1.[Cl-] | 95.7
CCN(CC)c1ccc2nc3ccc(N4CCOCC4)cc3[o+]c2c1.[Cl-] | 90
CCCN(CCC)c1ccc2nc3ccc(N4CCCCC4)cc3[o+]c2c1.[Cl-] | 93.2
CCN(CC)c1ccc2nc3ccc(N4CCCCC4)cc3[o+]c2c1.[Cl-] | 95.9
CN(C)c1ccc2nc3ccc(N4CCCCC4)cc3[o+]c2c1.[Cl-] | 96.4

====

Assay: Apparent volume of distribution in Wistar rat at 4 mg/kg, iv administered as single dose
Assay type: ADME, organism-based
Set-up: dose 4 mg/kg, route intravenous
Settings: in vivo, read-out: Vz

line notation | measure unit | Vd
CCN(CC)c1ccc2nc3ccc(N4CCCCC4)cc3[o+]c2c1.[Cl-] | L/kg | 35.3

====

Assay: Tmax in Wistar rat at 30 mg/kg, po administered as single dose
Assay type: ADME, organism-based
Parameters: dose 30 mg/kg, route oral
Conditions: in vivo

line notation | Tmax, min
CCN(CC)c1ccc2nc3ccc(N4CCCCC4)cc3[o+]c2c1.[Cl-] | 58.8

====

Assay: Plasma concentration in fasted Wistar rat at 30 mg/kg/day, po after 25 hrs by HPLC
Assay type: ADME, organism-based
Design: route oral
measured endpoint: concentration at 25 h (ng/mL)

line notation | result
CCN(CC)c1ccc2nc3ccc(N4CCCCC4)cc3[o+]c2c1.[Cl-] | 420

====

Assay: Half life in Wistar rat at 30 mg/kg, po administered as single dose
Type: ADME, organism-based
Set-up: dose 30 mg/kg, route oral
Conditions: in vivo
measured endpoint: half-life (h)

line notation | measure unit | result
CCN(CC)c1ccc2nc3ccc(N4CCCCC4)cc3[o+]c2c1.[Cl-] | h | 10.3

====

The molecules listed here are annotated with their Activity.
Test system: Plasmodium berghei
Experiment: Antimalarial activity as reduced parasitaemia against Plasmodium berghei NK65 infected ICR mice (Mus musculus) at 20 mg/kg/day intraperitoneal dose at day 4
Assay type: functional
Design: scale not given: the % may be the effect or the level left
measured endpoint: Activity (%)

line notation | result
CCN(CC)c1ccc2nc3ccc(N4CCSCC4)cc3[o+]c2c1.[Cl-] | 99.2
CCCN(CCC)c1ccc2nc3ccc(N4CCCC4)cc3[o+]c2c1.[Cl-] | 95.2
[Cl-].c1cc2nc3ccc(N4CCCC4)cc3[o+]c2cc1N1CCCC1 | 95.4
[Cl-].c1cc2nc3ccc(N4CCCCC4)cc3[o+]c2cc1N1CCCCC1 | 97.2
CN(C)c1ccc2nc3ccc(N4CCSCC4)cc3[o+]c2c1.[Cl-] | 94.5

====

Assay: Plasma concentration in fasted Wistar rat at 30 mg/kg/day, po after 49 hrs by HPLC
Format: ADME, organism-based
Parameters: route oral

line notation | measure unit | concentration at 49 h
CCN(CC)c1ccc2nc3ccc(N4CCCCC4)cc3[o+]c2c1.[Cl-] | ng/mL | 583

====

Assay: Plasma concentration in fasted Wistar rat at 30 mg/kg, po administered as single dose after 2 hrs by HPLC
Format: ADME, organism-based
Set-up: dose 30 mg/kg, route oral
measured endpoint: concentration at 2 h (ng/mL)

line notation | result
CCN(CC)c1ccc2nc3ccc(N4CCCCC4)cc3[o+]c2c1.[Cl-] | 158

====

Assay: Plasma concentration in Wistar rat at 4 mg/kg, iv administered as single dose after 4 hrs by HPLC
Type: ADME, organism-based
Parameters: dose 4 mg/kg, route intravenous

line notation | concentration at 4 h, ng/mL
CCN(CC)c1ccc2nc3ccc(N4CCCCC4)cc3[o+]c2c1.[Cl-] | 96.6

====

Experiment: Clearance in Wistar rat at 30 mg/kg, po administered as single dose
Type: ADME, organism-based
Design: dose 30 mg/kg, route oral
Conditions: in vivo

line notation | CL/F (mL/min/kg)
CCN(CC)c1ccc2nc3ccc(N4CCCCC4)cc3[o+]c2c1.[Cl-] | 43.3

====

Experiment: Clearance in Wistar rat at 4 mg/kg, iv administered as single dose
Assay type: ADME, organism-based
Parameters: dose 4 mg/kg, route intravenous
Conditions: in vivo
measured endpoint: clearance (L/h/kg)

line notation | result
CCN(CC)c1ccc2nc3ccc(N4CCCCC4)cc3[o+]c2c1.[Cl-] | 2.67

====

Assay: Plasma concentration in Wistar rat at 4 mg/kg, iv administered as single dose after 10 mins by HPLC
Type: ADME, organism-based
Design: dose 4 mg/kg, route intravenous
measured endpoint: concentration at 10 min

line notation | result
CCN(CC)c1ccc2nc3ccc(N4CCCCC4)cc3[o+]c2c1.[Cl-] | 0.468 µg/mL

====

Assay: Clearance in Wistar rat at 4 mg/kg, po administered as single dose
Assay type: ADME, organism-based
Parameters: dose 4 mg/kg, route oral
Conditions: in vivo
measured endpoint: CL/F (mL/min/kg)

line notation | measured endpoint | result
CCN(CC)c1ccc2nc3ccc(N4CCCCC4)cc3[o+]c2c1.[Cl-] | CL/F | 43.3

====

Test: Plasma concentration in fasted Wistar rat at 4 mg/kg, po administered as single dose after 1 hr by HPLC
Format: ADME, organism-based
Parameters: dose 4 mg/kg, route oral

line notation | concentration at 1 h / ng/mL
CCN(CC)c1ccc2nc3ccc(N4CCCCC4)cc3[o+]c2c1.[Cl-] | 658
